procedure text: Cmax in CD-1 mouse at 10 mg/kg, po measured after 24 hrs
Type: ADME, organism-based
measurement context: in vivo
value type: Cmax

Query block: Entry `Cc1ccc(O)c(C)c1-n1c(N)c(C(=O)N2CCn3nccc3C2)c2nc(C)c(C)nc21` : reported Cmax = ?
Result block: 902 ng/mL

----------
Kindly state clearance at 24 h for each of the entries shown.
procedure text: in vivo
measurement context: Sprague-Dawley, rat, iv, 1 mg/kg
Give bare numbers, in mL/min/kg.

Cc1ccc(O)c(C)c1-n1c(N)c(C(=O)N2CCn3nccc3C2)c2nc(C3CC3)c(C)nc21 | 49.1
Cc1ccc(O)c(C)c1-n1c(N)c(C(=O)N2CCn3nccc3C2)c2nc(C)c(C)nc21 | 46.8

Turning now to a further record.
Query block: Returns the measured clearance at 24 h for the input compound. Input: `Cc1cc2c(C(N)=O)c(N)n(-c3c(C)ccc(O)c3C)c2nc1C`
Result block: 37.6

----------
procedure text: Oral bioavailability in CD-1 mouse at 10 mg/kg measured after 24 hrs
Type: ADME, organism-based
measurement context: in vivo
value type: bioavailability (%)
One number for each entry, in %.

Query block: So what's the measured bioavailability for this one? `Cc1ccc(O)c(C)c1-n1c(N)c(C(=O)N2CCn3nccc3C2)c2nc(C)c(C)nc21`
Result block: 29.3

----------
procedure text: in vivo
measurement context: CD-1, mouse, po, 5 mg/kg
value type: Tmax at 24 h (min)
One number for each entry, in min.

Query block: Look at this compound and give its reported Tmax at 24 h. `Cc1cc2c(C(N)=O)c(N)n(-c3c(C)ccc(O)c3C)c2nc1C`
Result block: 24

----------
procedure text: Cmax in Sprague-Dawley rat at 10 mg/kg, po measured after 24 hrs
Type: ADME, organism-based
measurement context: in vivo
value type: Cmax (ng/mL)
One number for each entry, in ng/mL.

Query block: I'd like to know its Cmax. The compound in question is `Cc1ccc(O)c(C)c1-n1c(N)c(C(=O)N2CCn3nccc3C2)c2nc(C)c(C)nc21`
Result block: 1410

----------
procedure text: AUC (0 to t) in CD-1 mouse at 10 mg/kg, po measured after 24 hrs
Assay type: ADME, organism-based
measurement context: in vivo
value type: AUC(0-t) at 24 h (ng·h/mL)
One number for each entry, in ng·h/mL.

Query block: Quick one: AUC(0-t) at 24 h for `Cc1ccc(O)c(C)c1-n1c(N)c(C(=O)N2CCn3nccc3C2)c2nc(C)c(C)nc21` ?
Result block: 330

----------
procedure text: Cmax in CD-1 mouse at 30 mg/kg, po measured after 24 hrs
Assay type: ADME, organism-based
measurement context: in vivo
value type: Cmax
Answer shape: numeric part, then the unit.

Query block: // query Cmax value for entry `Cc1ccc(O)c(C)c1-n1c(N)c(C(=O)N2CCn3nccc3C2)c2nc(C3CC3)c(C)nc21`
Result block: 1.8 µg/mL

----------
procedure text: Oral bioavailability in Sprague-Dawley rat at 20 mg/kg measured after 24 hrs
Assay type: ADME, organism-based
measurement context: in vivo
value type: bioavailability (%)
One number for each entry, in %.

Query block: Query: bioavailability; subject: `Cc1ccc(O)c(C)c1-n1c(N)c(C(=O)N2CCn3nccc3C2)c2nc(C3CC3)c(C)nc21`
Result block: 55.9

----------
procedure text: in vivo
measurement context: CD-1, mouse, iv, 1 mg/kg
value type: Vd at 24 h

Cc1cc2c(C(N)=O)c(N)n(-c3c(C)ccc(O)c3C)c2nc1C | 2.3 L/kg
Cc1ccc(O)c(C)c1-n1c(N)c(C(=O)N2CCn3nccc3C2)c2nc(C)c(C)nc21 | 0.99 L/kg

// next entry
Query block: Which Vd at 24 h value is on record for `Cc1ccc(O)c(C)c1-n1c(N)c(C(=O)N2CCn3nccc3C2)c2nc(C3CC3)c(C)nc21` ?
Result block: 1.3 L/kg

----------
procedure text: MRT (0 to t) in CD-1 mouse at 1 mg/kg, iv measured after 24 hrs
Assay type: ADME, organism-based
measurement context: in vivo
Could you please report measured MRT last at 24 h for the items listed next?
Could you write the number and then its unit?

Solved entries (count: 2):
Cc1ccc(O)c(C)c1-n1c(N)c(C(=O)N2CCn3nccc3C2)c2nc(C3CC3)c(C)nc21 | 10.2 min
Cc1ccc(O)c(C)c1-n1c(N)c(C(=O)N2CCn3nccc3C2)c2nc(C)c(C)nc21 | 6.6 min

Query block: Would you mind telling me what MRT last at 24 h value was observed for `Cc1cc2c(C(N)=O)c(N)n(-c3c(C)ccc(O)c3C)c2nc1C` ?
Result block: 23.4 min

----------
I'd appreciate it if you could supply CLhep predicted values for the items below.
procedure text: in vitro
measurement context: mouse, hepatocytes
Numbers only, in mL/min/kg.

Study these solved cases before continuing.
Cc1cc2c(C(N)=O)c(N)n(-c3c(C)ccc(O)c3C)c2nc1C [LUNRESERTIB] | 79.4
Cc1ccc(O)c(C)c1-n1c(N)c(C(=O)N2CCn3nccc3C2)c2nc(C3CC3)c(C)nc21 | 83.5

Now for the compound whose CLhep predicted we want.
Query block: // query CLhep predicted value for entry `Cc1ccc(O)c(C)c1-n1c(N)c(C(=O)N2CCn3nccc3C2)c2nc(C)c(C)nc21`
Result block: 85.4

----------
procedure text: AUC (0 to t) in CD-1 mouse at 30 mg/kg, po measured after 24 hrs
Type: ADME, organism-based
measurement context: in vivo
value type: AUC(0-t) at 24 h (ng·h/mL)
Answers are plain numbers, in ng·h/mL.

Query block: Item under review: `Cc1ccc(O)c(C)c1-n1c(N)c(C(=O)N2CCn3nccc3C2)c2nc(C3CC3)c(C)nc21` . Reported AUC(0-t) at 24 h?
Result block: 2310

----------
procedure text: Tmax in CD-1 mouse at 10 mg/kg, po measured after 24 hrs
Assay type: ADME, organism-based
measurement context: in vivo
value type: Tmax (min)
One number for each entry, in min.

Query block: Entry under review: `Cc1ccc(O)c(C)c1-n1c(N)c(C(=O)N2CCn3nccc3C2)c2nc(C)c(C)nc21` . Reported Tmax?
Result block: 15
